Cited source for all entries: ChEMBL document CHEMBL1201862

Test system: LOX IMVI
Assay: NCI tumour cell line growth inhibition, 48 h
Calls of active or inactive are those of the source. No stated cut-off is given here; in the data, active = GI50 up to about 1.1 µM and inactive = higher.

{"columns": ["compound", "GI50"],
 "data": [
  ["CCOC(=O)CNC(=O)NC12CC3CC(CC(C3)C1)C2", "237 µM (inactive)"],
  ["CCC(Oc1ccc(OC)c2ccccc(=O)c12)C(=O)O (stereo unspecified)", "> 100 µM (inactive)"],
  ["CCOC(=O)C(NCc1cccc(C(F)(F)F)c1)(NC(=O)CC)C(F)(F)F (stereo unspecified)", "> 100 µM (inactive)"],
  ["O=C(/C=C(O)/C(=C/C(=O)c1ccccc1)NN=C(c1ccccc1)c1ccccc1)c1ccccc1", "38.3 µM (inactive)"],
  ["COc1ccc(C(=O)Sc2c(-c3ccccc3)c(=O)n(-c3ccccc3)c(=S)n2-c2ccccc2)cc1", "74.5 µM (inactive)"],
  ["Cc1ccc(S(=O)(=O)OC2CC=CC2)cc1", "> 100 µM (inactive)"],
  ["C=CCn1c(-c2ccc(Cl)cc2Cl)cs/c1=N\\c1c(C)n(C)n(-c2ccccc2)c1=O", "9.53 µM (inactive)"],
  ["N#CC12COC3(CCCCC3C1(C#N)C#N)OC2=N (stereo unspecified)", "12.9 µM (inactive)"],
  ["CC(C)(C)OC(=O)NCC(CNC(=O)OC(C)(C)C)C(N)=O", "> 100 µM (inactive)"],
  ["O=c1c(Cl)c(Cl)cnn1CCc1ccncc1", "17.8 µM (inactive)"],
  ["O=C(O)CCC(=O)c1ccc2c(c1)C(C(=O)O)CC2 (stereo unspecified)", "> 100 µM (inactive)"]
]}

###

System: CCRF-CEM
Test: NCI tumour cell line growth inhibition, 48 h
The source made the active and inactive calls. Cut-off read from the data, not from the text of the source: active = GI50 up to about 1.1 µM and inactive = higher.
Labels: active, inactive

{"columns": ["molecule", "category"],
 "data": [
  ["O=CN/C=C/c1cc(O)ccc1O", "inactive"],
  ["C[S+](C)CC1OC(n2cnc3c(N)ncnc32)C(O)C1O (centres undefined)", "inactive"],
  ["CN(CC(=O)O)c1ncc2c(n1)C=CCC2", "inactive"],
  ["COc1ccc(/C(Cl)=C(\\C=O)c2ccc(F)cc2)cc1", "inactive"],
  ["CN(C)CCNC(=O)c1cc(Cl)cc2cc3ccccc3nc12", "active"],
  ["CN(C)c1ccc(/C=C2\\C[C@H]3[C@@H]4CCc5cc(OCCN6CCCC6)ccc5[C@H]4CC[C@]3(C)C2=O)cc1", "inactive"],
  ["FC(F)(F)C1(C(F)(F)F)O[Si]2(OC(C(F)(F)F)(C(F)(F)F)c3ccccc32)c2ccccc21", "inactive"],
  ["Brc1ccc(C2CC3(c4ccccc4)ON=C(c4ccccc4)N3c3ccccc3S2)cc1 (centres undefined)", "inactive"],
  ["CSc1ncc2c(n1)-c1ccccc1OC2NC(C)(C)C (centres undefined)", "inactive"],
  ["C=CCCCn1ccc2ccccc21", "inactive"],
  ["COC(=O)C(C(=O)C(=O)NC1=C(Cl)C(=O)c2ccccc2C1=O)c1csc(-n2nc(-c3ccccc3)cc2-c2ccccc2)n1 (centres undefined)", "inactive"],
  ["C=C(C)CC1=C(OCC)C(OC)(OCC)C1=O (centres undefined)", "inactive"],
  ["Nc1cc(OCc2ccccc2)c(OCc2ccccc2)cc1C=O", "inactive"],
  ["CC1=C[C@@H](C)C[C@]2(C)CC[C@H](O2)[C@]23CC[C@](C(=O)O)(C[C@H](O2)[C@@H]2O[C@@](C)(CC2=O)[C@@H](O)[C@H]2CC[C@@]4(CCC[C@@H](O4)[C@H](C)C(=O)O[C@H]4C[C@H]([C@]5(O)OCC[C@H](C)[C@@H]5O)O[C@H]4C=C1)O2)O3", "inactive"],
  ["O=C(CC(=O)C(F)(F)F)c1csc2ccccc12", "inactive"],
  ["O=c1cc2oc3ccc4ccccc4c3cc-2c(=O)[nH]1", "active"],
  ["CCC(C)C(=O)O[C@H]1C(=O)O[C@@H]2C[C@H]3C(C)=CC(=O)[C@@H](O)[C@]3(C)[C@H]3[C@@H](O)[C@H](O)[C@@]4(C)OC[C@]32[C@@H]14 (some centres undefined)", "active"],
  ["CC(C)C(C/C=C1\\CC(CO)(COC(=O)CC(C(C)C)C(C)C)OC1=O)C(C)C (centres undefined)", "inactive"],
  ["COc1ccc(C2(CC(C)C)CCNC2)cc1OC (centres undefined)", "inactive"]
]}
